Read-out: CYP3A5 (gene 1577)
Assay: LTEA_HepaRG_CYP3A5: Life Technologies and Expression Analysis (LTEA) Assay for CYP3A5 using HepaRG (AID 2283493)
Conditions: mRNA level, 48 h; actives raise or lower the signal
Calls of active or inactive are those of the source. Rule for the calls: active = hit-call score of the fitted dose curve at least 0.9, where 1 is the maximum; inactive = score below 0.9.
Return exactly one item of class 1 for active, class 0 for inactive

Worked set:
CCCCCCCCCC[N+](C)(C)CCCCCCCCCC: class 0
NS(=O)(=O)C(F)(F)C(F)(F)C(F)(F)C(F)(F)C(F)(F)C(F)(F)C(F)(F)C(F)(F)F: class 1
CC(C)(O)C(=O)Nc1ccc([N+](=O)[O-])c(C(F)(F)F)c1: class 0
CCCCCCOC(=O)c1ccccc1C(=O)OCCCCCC: class 0
Nn1cnnc1: class 0
O=S(=O)(O)C(F)(F)C(F)(F)C(F)(F)C(F)(F)C(F)(F)C(F)(F)F: class 0
CN(C)c1nc(=O)n(C2CCCCC2)c(=O)n1C: class 0

With those in mind, consider the next compound.
Please share the test call associated with Clc1ccc(Cl)cc1 .
class 0
